# assayed.target: HDAC6 human recombinant (Homo sapiens, UniProt Q9UBN7)
# Construct: purchased Calbiochem 382180
# Sequence (Q9UBN7 1-1215): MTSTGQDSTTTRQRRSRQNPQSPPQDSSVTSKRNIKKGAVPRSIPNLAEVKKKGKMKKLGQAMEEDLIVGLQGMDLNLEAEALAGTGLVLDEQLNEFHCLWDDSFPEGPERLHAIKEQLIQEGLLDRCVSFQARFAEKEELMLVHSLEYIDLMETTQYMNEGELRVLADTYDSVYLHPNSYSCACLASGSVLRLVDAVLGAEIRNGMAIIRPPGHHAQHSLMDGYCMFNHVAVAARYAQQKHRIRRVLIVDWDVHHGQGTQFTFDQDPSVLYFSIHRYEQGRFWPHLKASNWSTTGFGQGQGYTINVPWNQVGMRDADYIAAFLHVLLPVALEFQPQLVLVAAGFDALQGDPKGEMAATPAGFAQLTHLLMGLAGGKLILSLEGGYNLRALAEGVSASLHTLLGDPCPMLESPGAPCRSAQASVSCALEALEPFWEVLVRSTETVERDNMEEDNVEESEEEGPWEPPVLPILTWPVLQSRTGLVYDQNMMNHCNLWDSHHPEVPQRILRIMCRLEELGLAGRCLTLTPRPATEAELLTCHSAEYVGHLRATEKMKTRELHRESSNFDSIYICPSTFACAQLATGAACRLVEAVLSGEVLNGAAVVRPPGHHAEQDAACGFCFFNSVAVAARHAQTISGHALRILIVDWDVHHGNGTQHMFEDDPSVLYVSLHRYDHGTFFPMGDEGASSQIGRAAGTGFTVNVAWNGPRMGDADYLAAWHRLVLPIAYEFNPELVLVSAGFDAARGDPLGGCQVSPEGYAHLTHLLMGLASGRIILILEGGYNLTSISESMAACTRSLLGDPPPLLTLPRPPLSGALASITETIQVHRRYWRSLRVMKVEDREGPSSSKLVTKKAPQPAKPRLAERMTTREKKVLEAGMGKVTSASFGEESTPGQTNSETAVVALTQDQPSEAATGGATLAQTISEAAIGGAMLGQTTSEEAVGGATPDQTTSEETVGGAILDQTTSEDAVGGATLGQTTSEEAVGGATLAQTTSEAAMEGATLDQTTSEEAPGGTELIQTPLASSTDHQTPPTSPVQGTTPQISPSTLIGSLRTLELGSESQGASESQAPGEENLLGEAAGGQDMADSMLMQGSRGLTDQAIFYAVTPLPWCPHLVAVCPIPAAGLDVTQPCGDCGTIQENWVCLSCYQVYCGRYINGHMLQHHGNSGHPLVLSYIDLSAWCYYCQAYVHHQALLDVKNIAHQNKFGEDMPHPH
# assay.comment: HDAC enzyme activity inhibition (in vitro), HDAC6 assay
# Assay type: biochemical
# particulars: samples at 0.1, 1, 10, 100 and 1000 nM; 37° C. 60 minutes; fluorescence Ex 390, Em 460; read-out: HDAC6 IC50
reported.endpoint: IC50 (nM)
// note: answer is a bare numeric in nM

For the molecule O=c1n(Cc2ccc(-c3nnc(C(F)F)o3)cc2F)c2ccccc2n1C1CCN(C2COC2)C1 (stereo not drawn) , report IC50. 299

For the molecule `O=c1n(Cc2ccc(-c3nnc(C(F)F)o3)cn2)c2cc(F)c(N3CCN(Cc4cccc5[nH]ccc45)CC3)cc2n1C1COC1` , report IC50. 29

For the molecule `O=c1n(Cc2ccc(-c3nnc(C(F)F)o3)cn2)c2cc(F)ccc2n1C1CCN(C2CCCCC2)CC1` , report IC50. 39
